# Target Desc: CCR10 (Homo sapiens, UniProt P46092)
# Construct: expressed in transfected cells
# Sequence (P46092 1-362): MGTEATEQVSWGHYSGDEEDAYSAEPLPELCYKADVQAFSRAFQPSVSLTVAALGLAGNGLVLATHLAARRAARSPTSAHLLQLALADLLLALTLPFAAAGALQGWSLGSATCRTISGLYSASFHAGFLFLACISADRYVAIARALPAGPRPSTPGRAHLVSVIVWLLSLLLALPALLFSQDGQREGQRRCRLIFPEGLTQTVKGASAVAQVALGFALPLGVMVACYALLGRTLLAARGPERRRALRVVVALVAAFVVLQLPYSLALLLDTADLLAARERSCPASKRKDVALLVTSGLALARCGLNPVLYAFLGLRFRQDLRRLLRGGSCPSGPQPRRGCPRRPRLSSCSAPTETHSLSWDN
# Protocol Description: Figure S2a opioid peptide screen on chemokine receptors
# Format: cell-based
# Parameters: dose or concentration left out as unconfirmed
# Protocol Conditions: replicate 1, read-out: CCR10 activity, ctrl+ = 100
Starred links: 1 amine or outer side, 2 acyl side, 3 side chain; linkers in the order of their positions; H or OH if unused. Non-standard residues stand in square brackets, D forms with d. Residues, ends and D or L forms follow the SMILES beside them. X1 = N[C@@H](Cc1ccccc1)CN(CC(=O)[*:2])[*:1]
Value Type: activation (%)

>>> number("C[C@H](NC(=O)CNC(=O)[C@@H](NC(=O)[C@H](Cc1ccccc1)NC(=O)CNC(=O)CNC[C@@H](N)Cc1ccccc1)[C@@H](C)O)C(=O)N[C@@H](CCCNC(=N)N)C(=O)N[C@@H](CCCCN)C(=O)N[C@@H](CO)C(=O)N[C@@H](C)C(=O)N[C@@H](CCCNC(=N)N)C(=O)N[C@@H](CCCCN)C(N)=O [FG Nociceptin 1-13] (H-[X1]GFTGARKSARK-NH2)")
-1.11
>>> number("CC(C)C[C@H](NC(=O)[C@H](Cc1ccccc1)NC(=O)CNC(=O)CNC(=O)[C@@H](N)Cc1ccc(O)cc1)C(=O)N[C@@H](CCCN=C(N)N)C(=O)N[C@@H](CCCN=C(N)N)C(=O)N[C@@H](CCC(N)=O)C(=O)N[C@@H](Cc1ccccc1)C(=O)N[C@@H](CCCCN)C(=O)N[C@H](C(=O)N[C@H](C(=O)N[C@H](C(=O)O)[C@@H](C)O)C(C)C)C(C)C")
-1.41
>>> number("CC[C@H](C)[C@H](NC(=O)[C@H](CCCNC(=N)N)NC(=O)[C@H](CCCNC(=N)N)NC(=O)[C@H](CC(C)C)NC(=O)[C@H](Cc1ccccc1)NC(=O)CNC(=O)CN)C(=O)N[C@@H](CCCNC(=N)N)C(=O)N1CCC[C@H]1C(=O)N[C@@H](CCCCN)C(=O)N[C@@H](CC(C)C)C(=O)N[C@@H](CCCCN)C(=O)N[C@@H](Cc1c[nH]c2ccccc12)C(=O)N[C@@H](CC(=O)O)C(=O)N[C@@H](CC(N)=O)C(=O)N[C@@H](CCC(N)=O)C(=O)O")
0.214
>>> number("NC(=O)[C@H](Cc1ccccc1)NC(=O)[C@H](Cc1c[nH]c2ccccc12)NC(=O)[C@@H]1CCCN1C(=O)[C@@H](N)Cc1ccc(O)cc1 [Endomorphin-1]")
-5.29
>>> number("C[C@H](NC(=O)CNC(=O)[C@@H](NC(=O)[C@H](Cc1ccccc1)NC(=O)CNC(=O)CNC(=O)[C@@H](N)Cc1ccccc1)[C@@H](C)O)C(=O)N[C@@H](CCCNC(=N)N)C(=O)N[C@@H](CCCCN)C(=O)N[C@@H](CO)C(=O)N[C@@H](C)C(=O)N[C@@H](CCCNC(=N)N)C(=O)N[C@@H](CCCCN)C(N)=O")
2.26
